Kindly supply the reported mass density values for the records listed here.
- STUDY_CONDITIONS: 353.15 K; 25000 kPa; Liquid; Vibrating tube method
Give bare numbers, in kg/m3.

## Input Read off the recorded mass density for CCCC[N+]1(C)CCCC1.O=S(=O)([N-]S(=O)(=O)C(F)(F)F)C(F)(F)F
## Output 1371.9

## Input Read off the recorded mass density for CCC[N+]1(C)CCCCC1.O=S(=O)([N-]S(=O)(=O)C(F)(F)F)C(F)(F)F
## Output 1378.4

## Input Given CCC[N+]1(C)CCCC1.O=S(=O)([N-]S(=O)(=O)C(F)(F)F)C(F)(F)F , respond with its mass density.
## Output 1400.4

## Input Name the recorded mass density of the item CCC[n+]1cccc(C)c1.O=S(=O)([N-]S(=O)(=O)C(F)(F)F)C(F)(F)F in your answer.
## Output 1415.1

Consider now this further compound.
## Input Using known records, supply mass density for CCn1cc[n+](C)c1.O=S(=O)([O-])C(F)(F)F [1-ethyl-3-methylimidazolium trifluoromethanesulfonate]
## Output 1341.9
